Catalogue of Ki values
Target: human 5HT1A receptor (Homo sapiens)
Construct: expressed in transfected cells; host or cells: CHO cells, stably transfected
Sequence (P08908 1-422): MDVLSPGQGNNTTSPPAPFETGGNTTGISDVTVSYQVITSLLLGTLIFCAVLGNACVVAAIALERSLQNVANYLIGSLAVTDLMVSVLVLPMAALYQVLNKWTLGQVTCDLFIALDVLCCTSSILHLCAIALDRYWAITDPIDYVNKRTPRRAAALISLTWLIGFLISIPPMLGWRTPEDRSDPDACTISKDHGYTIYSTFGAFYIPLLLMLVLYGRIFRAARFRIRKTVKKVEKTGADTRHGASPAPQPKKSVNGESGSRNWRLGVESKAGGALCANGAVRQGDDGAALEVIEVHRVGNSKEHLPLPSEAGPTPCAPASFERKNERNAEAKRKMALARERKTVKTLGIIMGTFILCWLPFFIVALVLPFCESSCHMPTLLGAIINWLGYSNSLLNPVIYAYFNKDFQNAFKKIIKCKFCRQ
Assay: 5-HT1A Receptor Binding Assay (displacement of [^3 H] 8-OH-DPAT binding in CHO cells stably transfected with human 5HT1A receptor)
Details: [^3 H] 8-OH-DPAT 1.5 nM; CHO cells; 30 minute incubation at room temperature; read-out: 5-HT1A binding Ki
observed.property: Ki

{"compound.string": "COc1ccc(F)cc1C1CCN(C[C@@H](Cc2ccccc2)N(C)C(=O)NC2CCCCC2)CC1", "assay.value": "3.5 nM"}
{"compound.string": "COc1ccc(F)cc1C1=CCN(C[C@@H](Cc2ccccc2)N(C)C(=O)NC2CCCCC2)CC1", "assay.value": "3.5 nM"}
